system: kochia; test: Test C pre-/postemergence test; assay type: in vivo, Kochia scoparia; details: Postemergence, 125 g ai/ha; scale 0 to 100, 0 no effect, 100 complete control
Property measured: Plant response rating, Kochia
Answer as a number with no unit attached.

Cc1cc[n+]([O-])c(S(=O)(=O)Cc2c(C(F)(F)F)nn(C)c2OC(F)F)c1 : 5
CCn1nc(C(F)(F)F)c(C[S+]([O-])c2cccc[n+]2[O-])c1OCC(F)(F)F (racemic) : 0
CC(Oc1c(CS(=O)(=O)c2cccc[n+]2[O-])c(C(F)(F)F)nn1C)C(F)(F)F (centres unmarked) : 0

get_value(item= CCn1nc(C(F)(F)F)c(C(C)S(=O)(=O)c2cccc[n+]2[O-])c1OCC(F)(F)F (centres unmarked) , readout=Plant response rating, Kochia) returns 0

Field Plant response rating, Kochia (entry CC(c1c(C(F)(F)F)nn(C)c1OC(F)F)S(=O)(=O)c1cccc[n+]1[O-] (centres unmarked) ) reads 0

All figures here come from patent US20100298141A1.
